Would you mind telling me the reported % cells bound of each entry?
study_target: T1, human IL-12Rβ2 (human, UniProt Q99665 24-862)
T1 construct: Expressed on HEK293T cells transiently transfected with a pcDNA3 plasmid (Genscript clone OHu21785); also called hIL-12RB2; IL-12 receptor β2 subunit
T1 sequence: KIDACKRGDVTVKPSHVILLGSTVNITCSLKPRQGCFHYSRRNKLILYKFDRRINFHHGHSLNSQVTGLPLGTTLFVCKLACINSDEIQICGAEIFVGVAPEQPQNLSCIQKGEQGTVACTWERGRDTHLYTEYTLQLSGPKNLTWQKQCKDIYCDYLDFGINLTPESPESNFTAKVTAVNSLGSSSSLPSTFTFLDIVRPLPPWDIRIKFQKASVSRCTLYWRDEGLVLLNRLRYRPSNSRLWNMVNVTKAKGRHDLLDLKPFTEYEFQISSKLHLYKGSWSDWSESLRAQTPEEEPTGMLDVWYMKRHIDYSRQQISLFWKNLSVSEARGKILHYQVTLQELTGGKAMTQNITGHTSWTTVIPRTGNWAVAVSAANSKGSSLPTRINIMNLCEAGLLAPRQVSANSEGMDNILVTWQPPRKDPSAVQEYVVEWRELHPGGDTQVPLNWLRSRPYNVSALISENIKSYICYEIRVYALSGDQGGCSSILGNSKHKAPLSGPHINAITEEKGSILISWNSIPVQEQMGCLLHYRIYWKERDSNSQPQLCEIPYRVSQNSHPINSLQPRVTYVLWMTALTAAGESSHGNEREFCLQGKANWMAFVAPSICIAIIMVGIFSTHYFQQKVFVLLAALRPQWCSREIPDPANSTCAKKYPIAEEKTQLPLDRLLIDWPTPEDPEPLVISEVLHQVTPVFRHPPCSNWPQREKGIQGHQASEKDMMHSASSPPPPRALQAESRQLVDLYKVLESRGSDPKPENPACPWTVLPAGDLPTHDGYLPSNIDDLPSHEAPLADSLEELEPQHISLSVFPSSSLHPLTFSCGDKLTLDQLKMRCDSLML
experiment_summary: flow cytometry, P.E. on transfected HEK293T cells
Express the result in % but write the number alone.

% cells bound measured on anti-IL-12Rβ2 VHH clone 3CRHM133 (VHH, not shown: small tags and cut ends, periplasmic extract; also called 21063) VHH: QVQLQESGGGSVQAGGSLRLSCAVSGRPVSDYAMGWFRQAPGKEREFVAALSASDTTVYPNSVKGRITISRDNAKNAVDLQMNALKPEDTAVYYCAMGPIGTFQGLARQNEYHYWGQGTQVTVSS = 33.7

Lab book: % cells bound of anti-IL-12Rβ2 VHH clone 3CRHM200 (VHH, not shown: small tags and cut ends, periplasmic extract; also called 21064) VHH: QVQLQESGGGLVQPGGSLRLSCAASGRTFSNYAMAWFRQAPGTEREFVAGLSGSGGDTAFYDNSVMGRFTISRDSAKNTMWLQINNLKPEDTAVYYCAAATHVVVSYGLVRRRGTYDYWGQGTQVTVSS noted as 35.3

Entry anti-IL-12Rβ2 VHH clone 3CAHS142 (VHH, not shown: small tags and cut ends, periplasmic extract) VHH: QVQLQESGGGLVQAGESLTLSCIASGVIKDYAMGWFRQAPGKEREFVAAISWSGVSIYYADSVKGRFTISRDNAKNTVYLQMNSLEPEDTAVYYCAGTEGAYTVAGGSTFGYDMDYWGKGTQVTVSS — recorded % cells bound = 40.9

The measured % cells bound associated with anti-IL-12Rβ2 VHH clone 2CRH60 (VHH, not shown: small tags and cut ends, periplasmic extract) VHH: QVQLQESGGGSVQPGGSLRLTCAASGFTFSTSGMHWFRQAPGKGLEWVSSISSGGGDTYYTDSVKGRITISRDNAKNTLYLQLNDLKSEDTAVYYCSKDPSGATRGQGTQVTVSS reads 45.3
